Target: T1, recombinant human EGFR extracellular domain with 6xHis (human, UniProt P00533 25-645)
T1 construct: In-house produced; also called 6xHis EGFR ECD; soluble human EGFR ECD; not shown: 6xHis tag
Experiment: SPR (BIAcore 2000); IgG captured on anti-human Fc, soluble monovalent EGFR ECD injected
Description: Kinetic analysis of the full length IgG antibodies of the invention was performed on a BIAcore 2000, employing an assay as described in (Canziani, Klakamp, et al. 2004, Anal. Biochem, 325:301-307) allowing measurement of monovalent affinities of whole IgG molecules against soluble antigen. […] The association rate constant (ka) and dissociation constant (kd) were evaluated globally from the generated sensograms with the BIA evaluation software 4.1 provided by the manufacturer.
readout: koff (s⁻¹)
Expressed in s⁻¹, but write only the number.

The cases that follow already have their koff on record.
antibody 1030 (antibody, human IgG1, kappa, V domains shown, Chimeric IgG1 kappa) VH: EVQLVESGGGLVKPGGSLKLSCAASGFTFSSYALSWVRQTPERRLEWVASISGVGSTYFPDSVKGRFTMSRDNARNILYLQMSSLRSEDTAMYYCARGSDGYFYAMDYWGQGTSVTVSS VL: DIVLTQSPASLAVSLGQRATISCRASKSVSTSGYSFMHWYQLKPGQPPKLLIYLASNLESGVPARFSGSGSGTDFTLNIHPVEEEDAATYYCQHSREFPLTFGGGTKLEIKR
0.00037
antibody 1260 (antibody, human IgG1, kappa, V domains shown, Chimeric IgG1 kappa) VH: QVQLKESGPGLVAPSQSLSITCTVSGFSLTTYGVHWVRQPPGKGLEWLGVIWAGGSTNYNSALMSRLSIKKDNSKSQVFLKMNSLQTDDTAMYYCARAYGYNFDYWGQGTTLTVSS VL: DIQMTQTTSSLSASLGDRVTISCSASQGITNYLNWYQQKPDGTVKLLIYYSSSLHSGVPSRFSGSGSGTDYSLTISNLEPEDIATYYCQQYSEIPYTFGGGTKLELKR
0.00016

As a next step, examine the binder that follows.
Need koff, item antibody 1347 (antibody, human IgG1, kappa, V domains shown, Chimeric IgG1 kappa) VH: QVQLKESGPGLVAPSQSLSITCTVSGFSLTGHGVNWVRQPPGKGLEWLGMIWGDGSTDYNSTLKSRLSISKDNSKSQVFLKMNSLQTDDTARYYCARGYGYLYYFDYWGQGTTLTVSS VL: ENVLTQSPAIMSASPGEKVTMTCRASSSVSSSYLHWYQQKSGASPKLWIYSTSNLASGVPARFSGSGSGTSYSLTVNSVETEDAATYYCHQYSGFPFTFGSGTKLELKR
0.0005
